assay: qHTS assay for small molecule agonists of the antioxidant response element (ARE) signaling pathway (AID 651741); settings: HepG2 ARE-bla reporter, beta-lactamase FRET ratio, 16 h; series mostly up to 96 µM; note: potency is the fitted concentration of half-maximal effect; for activation: % of control where 0% means no effect
Inconclusive results are not listed. Active and inactive are the calls of the source. Calls come from the whole dose curve; as a rule, active = well fitted activation curve with a large enough effect in the signal ratio; inconclusive = small, poorly fitted or top-dose-only effect, or effect the other way, or a change in a side signal; inactive = flat fitted curve, though single readings scatter; the % refers to the signal ratio.
observable: Potency

INSERT INTO results (chemicalstring, valuereported) VALUES
  ('C[Si]1(C)O[Si](C)(C)O[Si](C)(C)O[Si](C)(C)O[Si](C)(C)O1', 'inactive'),
  ('Oc1ccc(C(c2ccc(O)cc2)C(Cl)(Cl)Cl)cc1', '54.5 µM (active)'),
  ('Cc1ccc(Cl)cc1Cl', 'inactive'),
  ('COCCO', 'inactive'),
  ('CCCCCCCCCCCCCO', '48.6 µM (active)'),
  ('OCCOCCOCCOCCOCCO', 'inactive'),
  ('CCCCCCCCCCCC[N+](C)(C)C', '19.3 µM (active)'),
  ('CCOCCOCCOCCO', 'inactive');

----------
target: 3',5'-cyclic-AMP phosphodiesterase 4B (Homo sapiens); assay: qHTS Assay for Inhibitors of PDE-IV (AID 607); conditions: HEK293 ACTOne CNG channel cells, membrane potential fluorescence; series mostly up to 22.9 µM; note: % of control where 0% means no effect
Records with an inconclusive call do not appear. The source made the active and inactive calls. Calls follow the shape of the dose curve; as a rule, active = well fitted activation curve with a large enough effect in the main read-out, with a control signal flat (not every such curve was filed as active); inconclusive = small, poorly fitted or top-dose-only effect, or effect the other way, or a change in a side signal; inactive = flat fitted curve, though single readings scatter.
observable: outcome

INSERT INTO measurements (chemicalstring, valuereported) VALUES
  ('COC(=O)[C@@]1(Cc2ccc(F)cc2)[C@H]2c3cc(C(=O)N(C)C)n(Cc4ccsc4Br)c3C[C@H]2CN1C(=O)c1ccccc1', 'inactive'),
  ('COC(=O)[C@@]1(Cc2ccc(OC)cc2)[C@H]2c3cc(C(=O)N(C)C)n(Cc4cccc5ccccc45)c3C[C@H]2CN1C(=O)c1ccccc1', 'inactive'),
  ('COC(=O)[C@@]1(Cc2ccc(OC)cc2)[C@@H]2[C@@H](CC(=O)[C@H]2CC(=O)C(=O)N(C)C)CN1C(=O)c1ccccc1', 'inactive');

----------
test system: CP247; assay: qHTS profiling for inhibitors of Plasmodium falciparum proliferation (AID 504749); note: nearly all actives have a fitted effect of over 60% in size; conditions: P. falciparum in erythrocytes, SYBR Green DNA, 72 h; series mostly up to 28.7 µM
Inconclusive results are not listed. Calls of active or inactive are those of the source. Calls follow the shape of the dose curve; as a rule, active = well fitted inhibition curve with a large enough effect; inconclusive = small, poorly fitted or top-dose-only effect; inactive = flat fitted curve, though single readings scatter. Numbered stars: 1 amine (or outer) side, 2 acyl side, 3 side chain; on linkers, the order of the positions; unused ones are H or OH. Bridge positions count the residues as written; N and C are the ends. Square brackets hold non-standard residues; d marks the D form. Peptide text beside a SMILES is read from it. * marks the point of attachment. ξ: configuration not given here. ΔAla(Z-3-ureido) = NC(=O)N/C=C(\N)C(=O)O; X2 = NC1=NC(O)CC(C(N[*:1])C(=O)[*:2])N1; ξβ3hOrn = NCCCC(N)CC(=O)*; Orn = NCCC[CH](N)C(=O)O; Dap = NC[CH](N)C(=O)O
Outcomes: active, inactive

INSERT INTO assay_data (compound, group) VALUES
  ('CC(C)C[C@H](NC(=O)[C@@H](Cc1c[nH]c2ccccc12)NC(=O)[C@@H](Cc1ccc(O)cc1)NC(=O)[C@@H](CO)NC(=O)[C@@H](Cc1c[nH]c2ccccc12)NC(=O)C(Cc1cnc[nH]1)NC(=O)C1CCC(=O)N1)C(=O)N[C@@H](CCCN=C(N)N)C(=O)N1CCC[C@@H]1C(=O)NCC(N)=O (stereo not given in full)', 'inactive'),
  ('NCCCC(N)CC(=O)NC1CNC(=O)C(C2CC(O)N=C(N)N2)NC(=O)/C(=C/NC(N)=O)NC(=O)C(CO)NC(=O)C(CO)NC1=O (stereo not drawn) (ξβ3hOrn-[Dap]SS[ΔAla(Z-3-ureido)][X2]; lactam 1-C; configuration not given here)', 'inactive'),
  ('CC(C)CC1NC(=O)C(CCCN)NC(=O)C(C(C)C)NC(=O)C2CCCN2C(=O)C(Cc2ccccc2)NC(=O)C(CC(C)C)NC(=O)C(CCCN)NC(=O)C(C(C)C)NC(=O)C2CCCN2C(=O)C(Cc2ccccc2)NC1=O (stereo not given) (cyclo(FPV[Orn]LFPV[Orn]L); configuration not given here)', 'active'),
  ('CC1(C)C(/C=C/C=C/C=C/C=C2\N(CCCCS(=O)(=O)O)c3ccc4ccccc4c3C2(C)C)=[N+](CCCCS(=O)(=O)[O-])c2ccc3ccccc3c21', 'inactive'),
  ('CC(=O)OCC1=C(C(=O)O)N2C(=O)C(NC(=O)Cc3ccccc3)C2SC1 (stereo not given)', 'inactive');

----------
molecular target: Cytochrome P450 3A4 (Homo sapiens) (UniProt P08684); assay: qHTS Assay for Inhibitors and Substrates of Cytochrome P450 3A4 (AID 884); conditions: recombinant CYP3A4, Luciferin-PPXE luminescence; series mostly up to 57.1 µM; note: potency is the fitted concentration of half-maximal effect; nearly all actives have a fitted effect of over 50% in size
Sequence (P08684 whole entry, looked up): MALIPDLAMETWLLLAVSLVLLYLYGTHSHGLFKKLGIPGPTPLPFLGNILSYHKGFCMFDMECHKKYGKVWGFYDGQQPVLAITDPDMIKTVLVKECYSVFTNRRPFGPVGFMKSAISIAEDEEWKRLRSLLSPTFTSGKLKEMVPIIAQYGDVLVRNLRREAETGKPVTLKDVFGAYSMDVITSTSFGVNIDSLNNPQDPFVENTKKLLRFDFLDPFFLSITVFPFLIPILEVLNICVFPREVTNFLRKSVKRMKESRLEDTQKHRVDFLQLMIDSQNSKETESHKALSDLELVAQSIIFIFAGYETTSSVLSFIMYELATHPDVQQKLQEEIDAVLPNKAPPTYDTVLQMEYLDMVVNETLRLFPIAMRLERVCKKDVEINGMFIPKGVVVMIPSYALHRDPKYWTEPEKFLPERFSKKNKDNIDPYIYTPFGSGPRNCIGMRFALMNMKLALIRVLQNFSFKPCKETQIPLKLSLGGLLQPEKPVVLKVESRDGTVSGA
Inconclusive results are not listed. Active and inactive are the calls of the source. The call rests on the fitted dose curve; in most records, active means well fitted inhibition curve with a large enough effect; inconclusive means small, poorly fitted or top-dose-only effect; inactive means no such curve, though single readings can be large or run the other way.
observable: Potency

INSERT INTO results (compound, testtarget, valuereported) VALUES
  ('CCC1=C2CC[C@H]3C(=O)N(CC)C(=O)[C@H]3[C@H]2[C@@]2(Cc3ccccc3)C(=O)N(CCOC)C(=O)N2C1=O', 'Cytochrome P450 3A4 (Homo sapiens) (UniProt P08684)', '15.8 µM (active)'),
  ('Cc1ccc(S(=O)(=O)N[C@H]2COC(=O)[C@@H](Cc3ccccc3)NC(=O)[C@@H](C)COC(=O)C/C=C\[C@@H]2C)cc1', 'Cytochrome P450 3A4 (Homo sapiens) (UniProt P08684)', '3.98 µM (active)'),
  ('O=C(OCC1OC(OC(=O)c2cc(O)c(O)c(OC(=O)c3cc(O)c(O)c(O)c3)c2)[C@@H](OC(=O)c2cc(O)c(O)c(OC(=O)c3cc(O)c(O)c(O)c3)c2)C(OC(=O)c2cc(O)c(O)c(OC(=O)c3cc(O)c(O)c(O)c3)c2)C1OC(=O)c1cc(O)c(O)c(OC(=O)c2cc(O)c(O)c(O)c2)c1)c1cc(O)c(O)c(OC(=O)c2cc(O)c(O)c(O)c2)c1 (stereo partly specified)', 'Cytochrome P450 3A4 (Homo sapiens) (UniProt P08684)', '3.98 µM (active)'),
  ('COC(=O)c1ccc(C(NC(=O)OCc2ccccc2)/C(C)=C/[C@@H](C)C(=O)NCc2nn(-c3ccccc3)nc2C)cc1 (stereo partly specified)', 'Cytochrome P450 3A4 (Homo sapiens) (UniProt P08684)', '2.51 µM (active)'),
  ('COC(=O)c1ccc(C(NC(=O)OCc2ccccc2)/C(C)=C/[C@@H](C)C(=O)NCc2cc(F)cc(F)c2)cc1 (stereo partly specified)', 'Cytochrome P450 3A4 (Homo sapiens) (UniProt P08684)', '3.16 µM (active)');

----------
experiment: qHTS profiling for inhibitors of Plasmodium falciparum (HB3) proliferation (AID 743324); conditions: Plasmodium falciparum HB3 blood-stage proliferation; at 28.7 µM (top of the series);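 note: 100% = DMSO vehicle wells and 0% = artemisinin-treated control wells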
observable: remaining proliferation (% of control), lower = more inhibition (%)

INSERT INTO assay_data (chemicalstring, valuereported) VALUES
  ('O=CN(O)CCCP(=O)(O)O', 14.2),
  ('O=C(OCc1ccccc1)N1CCN(C(=O)[C@H](Cc2ccc(O[S+](=O)([O-])c3cccc4cnccc34)cc2)N[S+](=O)([O-])c2cccc3cnccc23)CC1', -0.068),
  ('CC(C)(C)OC(=O)N[C@@H](Cc1ccc(O[S+](=O)([O-])c2ccccn2)cc1)C(=O)N1CCN(c2ccccc2)CC1', 2.38),
  ('O=C1CCC(C2=C(O)c3ccccc3C(=O)C2=O)CC1', 5.38),
  ('O=C([C@H](Cc1ccc(O[S+](=O)([O-])c2cccc3cnccc23)cc1)N[S+](=O)([O-])c1cccnc1)N1CCN(c2ccccc2)CC1', -0.812),
  ('O=C([C@@H](Cc1ccc(O[S+](=O)([O-])c2cccc3cccnc23)cc1)N[S+](=O)([O-])c1cccc2cccnc12)N1CCN(c2ccccc2)CC1', 1.75),
  ('C[C@@H]1Cc2c([nH]c3cc(Cl)c(F)cc23)[C@]2(N1)C(=O)Nc1ccc(Cl)cc12', -0.181),
  ('O=C([C@H](Cc1ccc(O[S+](=O)([O-])c2ccccn2)cc1)N[S+](=O)([O-])c1cccc2cnccc12)N1CCN(c2ccccc2)CC1', 0.0492),
  ('O=C([C@H](Cc1ccc(O[S+](=O)([O-])c2cccc3cccnc23)cc1)N[S+](=O)([O-])c1cccc2cnccc12)N1CCN(c2ccccc2)CC1', 0.212),
  ('N[C@@H](Cc1ccc(OS(=O)(=O)c2ccccn2)cc1)C(=O)N1CCN(c2ccccc2)CC1', 67),
  ('CCN(CC)CCOc1ccc2c(=O)c3ccc(Cl)cc3n(CCN(CC)CC)c2c1', -0.0504),
  ('O=C([C@H](Cc1ccc(OS(=O)(=O)c2ccccn2)cc1)NS(=O)(=O)c1ccccn1)N1CCN(c2ccccc2)CC1', 18.6),
  ('CS(=O)(=O)c1ccc(-c2cnc(N)c(-c3ccc(C(F)(F)F)nc3)c2)cc1', 4.13),
  ('CC(C)(C)OC(=O)N[C@@H](Cc1ccc(O[S+](=O)([O-])c2cccc3cccnc23)cc1)C(=O)N1CCN(c2ccccc2)CC1', -0.0202);
